measured on: Bone morphogenetic protein receptor type-2 (Homo sapiens, UniProt Q13873)
Sequence (Q13873 whole entry): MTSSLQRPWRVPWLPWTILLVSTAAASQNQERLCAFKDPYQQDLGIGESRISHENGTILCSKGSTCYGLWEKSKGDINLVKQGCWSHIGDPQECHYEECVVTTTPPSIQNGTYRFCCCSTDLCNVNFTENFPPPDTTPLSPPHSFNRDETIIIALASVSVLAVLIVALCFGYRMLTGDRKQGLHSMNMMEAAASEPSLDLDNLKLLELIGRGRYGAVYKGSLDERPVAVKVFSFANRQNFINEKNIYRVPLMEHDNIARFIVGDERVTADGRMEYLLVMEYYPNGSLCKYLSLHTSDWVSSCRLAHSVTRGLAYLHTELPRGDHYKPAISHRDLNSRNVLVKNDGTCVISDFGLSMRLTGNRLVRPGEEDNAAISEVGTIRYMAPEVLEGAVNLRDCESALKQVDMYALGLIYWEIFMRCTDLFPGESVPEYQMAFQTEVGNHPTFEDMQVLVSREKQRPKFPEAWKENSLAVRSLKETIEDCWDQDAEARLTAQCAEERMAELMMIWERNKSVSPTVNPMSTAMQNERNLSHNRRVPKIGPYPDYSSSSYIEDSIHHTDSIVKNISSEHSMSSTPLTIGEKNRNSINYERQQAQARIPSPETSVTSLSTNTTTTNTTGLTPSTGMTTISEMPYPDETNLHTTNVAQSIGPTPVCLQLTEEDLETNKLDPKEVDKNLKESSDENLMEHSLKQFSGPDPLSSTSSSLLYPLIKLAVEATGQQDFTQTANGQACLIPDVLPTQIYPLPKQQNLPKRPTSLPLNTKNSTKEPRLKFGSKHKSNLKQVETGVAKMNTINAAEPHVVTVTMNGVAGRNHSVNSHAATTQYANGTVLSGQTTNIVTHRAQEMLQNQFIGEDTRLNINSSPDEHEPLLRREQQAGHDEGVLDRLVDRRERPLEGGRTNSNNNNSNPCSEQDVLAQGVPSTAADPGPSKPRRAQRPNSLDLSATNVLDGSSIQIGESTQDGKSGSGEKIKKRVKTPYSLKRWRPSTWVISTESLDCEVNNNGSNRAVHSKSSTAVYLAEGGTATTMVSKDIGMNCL
pKd: −log10 of the molar value.
reported metric: pKd

Lookup: Would you kindly share the measured pKd for "CCOc1cc2ncc(C#N)c(Nc3ccc(F)c(Cl)c3)c2cc1NC(=O)/C=C/CN(C)C" ?
Found: < 5.00

Lookup: What about "COCC(=O)NC/C=C/c1ccc2ncnc(Nc3ccc(Oc4ccc(C)nc4)c(C)c3)c2c1" ?
Found: < 5.00

Lookup: What about "Oc1ccc(-c2nc(-c3ccncc3)c(-c3ccc(F)cc3)[nH]2)cc1" ?
Found: < 5.00

Lookup: What about "NC(=O)c1ccc(-c2nc(-c3ccc4c(c3)OCO4)c(-c3ccccn3)[nH]2)cc1" ?
Found: < 5.00

====

pKd: −log10 of the molar value.
Observed pKd, system Cyclin-dependent kinase 14 (Homo sapiens, UniProt O94921).

Lookup: Would you kindly share the measured pKd for "COCC(=O)NC/C=C/c1ccc2ncnc(Nc3ccc(Oc4ccc(C)nc4)c(C)c3)c2c1" ?
Found: < 5.00

Lookup: What about "NC(=O)c1ccc(-c2nc(-c3ccc4c(c3)OCO4)c(-c3ccccn3)[nH]2)cc1" ?
Found: < 5.00

Lookup: What about "CCOc1cc2ncc(C#N)c(Nc3ccc(F)c(Cl)c3)c2cc1NC(=O)/C=C/CN(C)C" ?
Found: < 5.00

Lookup: What about "Nc1nc(Nc2ccc(S(N)(=O)=O)cc2)nn1C(=O)c1c(F)cccc1F" ?
Found: 5.44

Lookup: What about "Oc1ccc(-c2nc(-c3ccncc3)c(-c3ccc(F)cc3)[nH]2)cc1" ?
Found: < 5.00

====

measured on: Serine/threonine-protein kinase DCLK3 (Homo sapiens, UniProt Q9C098)
Sequence (Q9C098 whole entry): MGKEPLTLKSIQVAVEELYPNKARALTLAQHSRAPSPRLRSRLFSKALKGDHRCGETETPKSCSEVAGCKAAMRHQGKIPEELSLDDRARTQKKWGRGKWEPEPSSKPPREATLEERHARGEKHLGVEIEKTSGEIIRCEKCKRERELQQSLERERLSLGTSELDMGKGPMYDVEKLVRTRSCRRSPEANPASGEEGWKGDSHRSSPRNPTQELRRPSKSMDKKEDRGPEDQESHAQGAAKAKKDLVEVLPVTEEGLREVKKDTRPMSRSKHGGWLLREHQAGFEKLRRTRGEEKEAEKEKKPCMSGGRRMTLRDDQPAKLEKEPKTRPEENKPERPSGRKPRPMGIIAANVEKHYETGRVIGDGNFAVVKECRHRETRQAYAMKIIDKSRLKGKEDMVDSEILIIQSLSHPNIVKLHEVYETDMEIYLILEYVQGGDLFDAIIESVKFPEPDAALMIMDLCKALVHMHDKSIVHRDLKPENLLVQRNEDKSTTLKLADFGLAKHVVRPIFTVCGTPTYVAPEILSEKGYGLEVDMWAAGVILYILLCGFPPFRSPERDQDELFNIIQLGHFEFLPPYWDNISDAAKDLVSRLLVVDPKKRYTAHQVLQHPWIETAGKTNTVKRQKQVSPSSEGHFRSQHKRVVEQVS
reported metric: Kd

Lookup: Would you kindly share the measured Kd for "COCC(=O)NC/C=C/c1ccc2ncnc(Nc3ccc(Oc4ccc(C)nc4)c(C)c3)c2c1" ?
Found: > 10 µM

Lookup: What about "NC(=O)c1ccc(-c2nc(-c3ccc4c(c3)OCO4)c(-c3ccccn3)[nH]2)cc1" ?
Found: > 10 µM

Lookup: What about "Oc1ccc(-c2nc(-c3ccncc3)c(-c3ccc(F)cc3)[nH]2)cc1" ?
Found: > 10 µM

Lookup: What about "CCOc1cc2ncc(C#N)c(Nc3ccc(F)c(Cl)c3)c2cc1NC(=O)/C=C/CN(C)C" ?
Found: 4.9 µM

====

Observed Kd, system Tyrosine-protein kinase TXK (Homo sapiens, UniProt P42681).

Lookup: Would you kindly share the measured Kd for "NC(=O)c1ccc(-c2nc(-c3ccc4c(c3)OCO4)c(-c3ccccn3)[nH]2)cc1" ?
Found: > 10 µM

Lookup: What about "CCOc1cc2ncc(C#N)c(Nc3ccc(F)c(Cl)c3)c2cc1NC(=O)/C=C/CN(C)C" ?
Found: 5.5 µM

Lookup: What about "Oc1ccc(-c2nc(-c3ccncc3)c(-c3ccc(F)cc3)[nH]2)cc1" ?
Found: > 10 µM

Lookup: What about "COCC(=O)NC/C=C/c1ccc2ncnc(Nc3ccc(Oc4ccc(C)nc4)c(C)c3)c2c1" ?
Found: > 10 µM

Lookup: What about "Nc1nc(Nc2ccc(S(N)(=O)=O)cc2)nn1C(=O)c1c(F)cccc1F" ?
Found: > 10 µM

====

measured on: Ribosomal protein S6 kinase alpha-6 (Homo sapiens, UniProt Q9UK32)
Sequence (Q9UK32 whole entry): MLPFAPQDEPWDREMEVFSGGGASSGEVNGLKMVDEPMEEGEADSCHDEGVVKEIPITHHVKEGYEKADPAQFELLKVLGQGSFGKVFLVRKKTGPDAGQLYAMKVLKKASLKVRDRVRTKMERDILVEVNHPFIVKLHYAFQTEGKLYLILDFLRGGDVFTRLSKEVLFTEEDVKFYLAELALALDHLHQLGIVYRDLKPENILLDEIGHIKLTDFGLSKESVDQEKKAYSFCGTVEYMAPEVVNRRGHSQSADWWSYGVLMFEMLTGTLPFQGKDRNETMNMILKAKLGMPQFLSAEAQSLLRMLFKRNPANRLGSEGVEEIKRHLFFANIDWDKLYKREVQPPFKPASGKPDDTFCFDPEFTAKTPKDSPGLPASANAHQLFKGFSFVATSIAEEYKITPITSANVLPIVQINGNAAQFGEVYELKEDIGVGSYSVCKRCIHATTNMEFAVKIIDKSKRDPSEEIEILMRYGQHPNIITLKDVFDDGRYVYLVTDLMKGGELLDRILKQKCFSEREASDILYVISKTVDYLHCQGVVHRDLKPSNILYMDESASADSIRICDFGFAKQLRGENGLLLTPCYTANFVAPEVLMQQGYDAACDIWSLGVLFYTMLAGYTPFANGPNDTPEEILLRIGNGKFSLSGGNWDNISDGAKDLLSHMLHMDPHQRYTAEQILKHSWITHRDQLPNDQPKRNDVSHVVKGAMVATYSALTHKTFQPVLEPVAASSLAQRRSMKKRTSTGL
reported metric: Kd

Lookup: Would you kindly share the measured Kd for "COCC(=O)NC/C=C/c1ccc2ncnc(Nc3ccc(Oc4ccc(C)nc4)c(C)c3)c2c1" ?
Found: > 10 µM

Lookup: What about "CCOc1cc2ncc(C#N)c(Nc3ccc(F)c(Cl)c3)c2cc1NC(=O)/C=C/CN(C)C" ?
Found: > 10 µM

Lookup: What about "Oc1ccc(-c2nc(-c3ccncc3)c(-c3ccc(F)cc3)[nH]2)cc1" ?
Found: > 10 µM

====

measured on: Ephrin type-A receptor 3 (Homo sapiens, UniProt P29320)
Sequence (P29320 whole entry): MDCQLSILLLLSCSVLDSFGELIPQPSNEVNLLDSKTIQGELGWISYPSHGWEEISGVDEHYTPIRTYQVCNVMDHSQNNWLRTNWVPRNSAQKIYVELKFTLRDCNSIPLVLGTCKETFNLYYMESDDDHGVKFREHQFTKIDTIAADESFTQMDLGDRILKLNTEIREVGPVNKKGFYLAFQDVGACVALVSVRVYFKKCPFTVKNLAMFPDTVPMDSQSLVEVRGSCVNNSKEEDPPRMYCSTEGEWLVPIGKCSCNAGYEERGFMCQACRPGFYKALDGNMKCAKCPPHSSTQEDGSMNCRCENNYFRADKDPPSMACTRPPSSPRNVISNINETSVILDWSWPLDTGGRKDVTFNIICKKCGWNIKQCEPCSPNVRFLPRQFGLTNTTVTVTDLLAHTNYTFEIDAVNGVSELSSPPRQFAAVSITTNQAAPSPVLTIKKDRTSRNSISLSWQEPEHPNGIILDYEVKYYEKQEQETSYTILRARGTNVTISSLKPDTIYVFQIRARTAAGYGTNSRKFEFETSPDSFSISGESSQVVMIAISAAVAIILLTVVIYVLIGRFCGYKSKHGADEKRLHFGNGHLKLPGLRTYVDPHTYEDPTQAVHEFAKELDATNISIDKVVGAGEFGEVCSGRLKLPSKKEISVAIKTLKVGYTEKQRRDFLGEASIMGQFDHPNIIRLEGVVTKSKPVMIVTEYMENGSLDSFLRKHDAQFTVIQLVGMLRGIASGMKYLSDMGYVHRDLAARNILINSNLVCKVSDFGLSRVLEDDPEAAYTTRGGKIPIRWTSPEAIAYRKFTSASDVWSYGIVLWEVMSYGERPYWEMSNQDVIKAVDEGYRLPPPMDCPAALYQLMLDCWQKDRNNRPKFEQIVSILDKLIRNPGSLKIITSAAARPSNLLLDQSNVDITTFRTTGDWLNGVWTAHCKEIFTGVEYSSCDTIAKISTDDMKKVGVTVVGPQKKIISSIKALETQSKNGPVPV
reported metric: Kd

Lookup: Would you kindly share the measured Kd for "Oc1ccc(-c2nc(-c3ccncc3)c(-c3ccc(F)cc3)[nH]2)cc1" ?
Found: > 10 µM

Lookup: What about "Nc1nc(Nc2ccc(S(N)(=O)=O)cc2)nn1C(=O)c1c(F)cccc1F" ?
Found: > 10 µM

Lookup: What about "COCC(=O)NC/C=C/c1ccc2ncnc(Nc3ccc(Oc4ccc(C)nc4)c(C)c3)c2c1" ?
Found: > 10 µM

Lookup: What about "NC(=O)c1ccc(-c2nc(-c3ccc4c(c3)OCO4)c(-c3ccccn3)[nH]2)cc1" ?
Found: > 10 µM

====

Consider the following compounds; for each one, report its pKd.
measured on: Dual specificity mitogen-activated protein kinase kinase 3 (Homo sapiens, UniProt P46734)
Sequence (P46734 whole entry): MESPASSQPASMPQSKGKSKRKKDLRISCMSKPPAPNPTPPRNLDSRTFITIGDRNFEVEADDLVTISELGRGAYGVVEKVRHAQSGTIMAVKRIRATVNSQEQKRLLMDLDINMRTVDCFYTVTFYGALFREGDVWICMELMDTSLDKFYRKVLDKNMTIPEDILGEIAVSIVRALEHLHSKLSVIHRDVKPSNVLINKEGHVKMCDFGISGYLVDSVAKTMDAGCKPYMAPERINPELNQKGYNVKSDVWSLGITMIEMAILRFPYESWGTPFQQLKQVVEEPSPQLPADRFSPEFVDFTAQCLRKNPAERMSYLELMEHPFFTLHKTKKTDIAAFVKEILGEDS
pKd: −log10 of the molar value.

Lookup: Would you kindly share the measured pKd for COCC(=O)NC/C=C/c1ccc2ncnc(Nc3ccc(Oc4ccc(C)nc4)c(C)c3)c2c1 [CP-724714] ?
Found: < 5.00

Lookup: What about CCN1CCN(Cc2ccc(NC(=O)Nc3ccc(Oc4cc(NC)ncn4)cc3)cc2C(F)(F)F)CC1 [AST-487] ?
Found: < 5.00

Lookup: What about Nc1nc(Nc2ccc(S(N)(=O)=O)cc2)nn1C(=O)c1c(F)cccc1F [JNJ-7706621] ?
Found: 5.82

Lookup: What about NC(=O)c1ccc(-c2nc(-c3ccc4c(c3)OCO4)c(-c3ccccn3)[nH]2)cc1 [SB-431542] ?
Found: < 5.00

Lookup: What about Oc1ccc(-c2nc(-c3ccncc3)c(-c3ccc(F)cc3)[nH]2)cc1 [SB-202190] ?
Found: < 5.00

Lookup: What about CCOc1cc2ncc(C#N)c(Nc3ccc(F)c(Cl)c3)c2cc1NC(=O)/C=C/CN(C)C [PELITINIB] ?
Found: < 5.00
